Biological target: KDM5B enzyme (Homo sapiens, UniProt Q9UGL1)
Sequence (Q9UGL1 whole entry): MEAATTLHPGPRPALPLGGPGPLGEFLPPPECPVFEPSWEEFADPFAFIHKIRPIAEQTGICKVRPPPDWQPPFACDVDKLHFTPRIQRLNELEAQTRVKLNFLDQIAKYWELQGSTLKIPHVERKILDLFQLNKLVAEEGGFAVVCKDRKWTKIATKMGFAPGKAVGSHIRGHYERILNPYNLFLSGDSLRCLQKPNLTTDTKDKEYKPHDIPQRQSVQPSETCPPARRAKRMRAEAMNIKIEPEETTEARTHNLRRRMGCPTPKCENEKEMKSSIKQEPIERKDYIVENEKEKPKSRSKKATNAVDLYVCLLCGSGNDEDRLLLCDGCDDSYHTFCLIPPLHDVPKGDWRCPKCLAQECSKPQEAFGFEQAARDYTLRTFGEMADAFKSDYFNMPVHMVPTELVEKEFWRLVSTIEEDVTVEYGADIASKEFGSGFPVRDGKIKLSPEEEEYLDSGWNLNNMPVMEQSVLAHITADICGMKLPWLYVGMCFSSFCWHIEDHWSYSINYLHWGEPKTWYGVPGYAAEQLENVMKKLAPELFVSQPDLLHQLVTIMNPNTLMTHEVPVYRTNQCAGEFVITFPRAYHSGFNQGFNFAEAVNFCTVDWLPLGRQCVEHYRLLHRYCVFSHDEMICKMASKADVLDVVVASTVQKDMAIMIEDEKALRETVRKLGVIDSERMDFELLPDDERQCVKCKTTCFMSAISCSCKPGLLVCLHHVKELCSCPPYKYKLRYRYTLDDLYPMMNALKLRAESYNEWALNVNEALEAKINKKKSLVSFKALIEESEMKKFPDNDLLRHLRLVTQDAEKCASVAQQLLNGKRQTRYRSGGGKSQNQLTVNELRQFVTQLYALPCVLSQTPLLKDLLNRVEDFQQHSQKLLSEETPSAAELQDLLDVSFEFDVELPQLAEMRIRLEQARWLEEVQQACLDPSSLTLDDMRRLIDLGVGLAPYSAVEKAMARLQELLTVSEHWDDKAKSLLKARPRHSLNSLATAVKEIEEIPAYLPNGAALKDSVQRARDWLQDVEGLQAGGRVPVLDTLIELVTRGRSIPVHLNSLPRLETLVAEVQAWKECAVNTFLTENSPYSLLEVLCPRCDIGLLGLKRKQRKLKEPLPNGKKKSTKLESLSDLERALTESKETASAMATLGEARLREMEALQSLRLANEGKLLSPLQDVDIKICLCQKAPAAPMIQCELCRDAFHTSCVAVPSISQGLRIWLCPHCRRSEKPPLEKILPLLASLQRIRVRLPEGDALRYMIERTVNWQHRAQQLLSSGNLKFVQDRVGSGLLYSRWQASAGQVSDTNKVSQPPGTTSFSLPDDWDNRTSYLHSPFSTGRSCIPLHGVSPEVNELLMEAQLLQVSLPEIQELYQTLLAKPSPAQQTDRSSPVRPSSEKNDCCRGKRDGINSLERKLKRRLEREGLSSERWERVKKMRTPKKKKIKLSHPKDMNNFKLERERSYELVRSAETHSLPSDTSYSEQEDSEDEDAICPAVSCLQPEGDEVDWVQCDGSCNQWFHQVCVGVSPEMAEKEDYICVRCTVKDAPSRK
pIC50: −log10 of the molar value.
observationType: pIC50

Please review the entries below; each comes with its answer.
> print(dat)
                                   molecule  endpointvalue
1  COc1cc(Cl)ccc1CNc1ccc2nccn2c1-c1nn[nH]n1         < 6.00
2         O=C(O)c1c(NCc2ccccc2Cl)ccc2nccn12         < 6.00
3     O=C(O)c1c(NCc2cccc3ccccc23)ccc2nccn12         < 6.00
4          COc1ccccc1Oc1cc(C(=O)O)n2ccnc2c1         < 6.00
5     O=C(O)c1c(NCc2ccc(F)c(F)c2)ccc2nccn12         ≥ 6.30
6        COc1c(F)cccc1CNc1ccc2nccn2c1C(=O)O   6.00 to 6.30
7  O=C(O)c1c(NCC2CCCc3cc(Oc4ccccc4)ccc32)ccc2nccn12 (stereo not shown)         < 6.00
8        COc1ccc(CNc2ccc3nccn3c2C(=O)O)cc1O         ≥ 6.30
9      O=C(O)c1c(NCc2c(F)cccc2Cl)ccc2nccn12         < 6.00

Kindly consider the entry below.
Fill: pIC50 (KDM5B enzyme (Homo sapiens, UniProt Q9UGL1)) for this molecule Cc1nc2cc(C(O)c3ccccc3)ccn2c1C(=O)O (stereo not shown) < 6.00
